These data points were gathered from ChEMBL document CHEMBL1961873.

target: Mitogen-activated protein kinase 1 (Homo sapiens) (UniProt P28482); settings: at 0.1 µM;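 further: reported figure is an averaged percent inhibition of the kinase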
Sequence (P28482 whole entry): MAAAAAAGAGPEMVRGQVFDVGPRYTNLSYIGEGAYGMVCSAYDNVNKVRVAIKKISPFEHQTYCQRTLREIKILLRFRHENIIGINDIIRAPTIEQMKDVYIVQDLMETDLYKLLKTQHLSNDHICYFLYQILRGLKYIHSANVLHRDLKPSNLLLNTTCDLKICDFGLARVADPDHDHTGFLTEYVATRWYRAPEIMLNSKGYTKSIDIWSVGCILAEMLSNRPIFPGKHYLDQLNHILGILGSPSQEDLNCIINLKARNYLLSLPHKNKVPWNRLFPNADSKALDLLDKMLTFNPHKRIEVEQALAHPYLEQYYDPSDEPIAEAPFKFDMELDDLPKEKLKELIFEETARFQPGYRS
We use 2% as the dividing line for inhibition: on or above the line is 1.0, below is 0.0.

These solved cases illustrate the format of a correct answer.
NC(=O)c1cccc(Nc2nccc(Nc3cccc(F)c3)n2)c1 | 0.0
Nc1ccc(C#Cc2cncnc2Nc2ccc(OCc3cccc(F)c3)c(Cl)c2)cc1 | 1.0
COC(=O)Nc1nc2cc(Oc3ccc(NC(=O)Nc4cccc(Br)c4)cc3)ccc2[nH]1 | 1.0
COc1ccc(-c2nn3ncccc3c2-c2ccnc(Nc3cccc(C(F)(F)F)c3)n2)cc1 | 1.0

Ask: // inclusive: inhibition at least 2%? input: COc1cc(Nc2nccc(-c3cnn4ncccc34)n2)cc(OC)c1
Result: 1.0

Ask: // inclusive: inhibition at least 2%? input: CS(=O)(=O)CCNCc1nc(-c2ccc3ncnc(Nc4ccc(OCc5cccc(C(F)(F)F)c5)cc4)c3c2)cs1
Result: 0.0
